Listing of recorded melting point by entry.

Enquiry: Item COc1ccc(OC)c2c(Nc3cc(O)c(Cl)cc3F)c(C#N)cnc12 : provide melting point
Return: 240 °C (dec.)

Enquiry: Item COCC#CC(=O)Nc1ccc2ncc(C#N)c(Nc3cccc(Br)c3)c2c1 [Example 330] : provide melting point
Return: 197 °C (dec.)

Enquiry: Item CC(C)N(CC#CC(=O)Nc1ccc2ncc(C#N)c(Nc3cccc(Br)c3)c2c1)C(C)C : provide melting point
Return: 130 °C (dec.)

Enquiry: Item COc1cc2ncc(C#N)c(Nc3cc(Br)c(O)c(Br)c3)c2cc1OC : provide melting point
Return: > 250 °C

Enquiry: Item COc1cc2ncc(C#N)c(Nc3cccc(O)c3C)c2cc1OC : provide melting point
Return: 255 to 257 °C

Enquiry: Item COc1cc2ncc(C#N)c(Nc3ccc(O)cc3C)c2cc1OC : provide melting point
Return: > 250 °C

Enquiry: Item COc1cc2ncc(C#N)c(Nc3ccccc3C(N)=O)c2cc1OC : provide melting point
Return: 238 to 240.5 °C

Enquiry: Item COc1cc2ncc(C#N)c(Nc3ccc(O)c(Cl)c3)c2cc1OC : provide melting point
Return: 230 to 232 °C

Enquiry: Item CCN(CC)CC#CC(=O)Nc1ccc2ncc(C#N)c(Nc3ccc(F)c(Cl)c3)c2c1 : provide melting point
Return: 117 to 120 °C

Enquiry: Item COCC#CC(=O)Nc1ccc2ncc(C#N)c(Nc3cccc(Br)c3)c2c1 [Example 60] : provide melting point
Return: 198 to 202 °C (dec.)

Enquiry: Item COc1cc2c(Nc3ccc(C)c(O)c3)c(C#N)cnc2c(OC)c1OC : provide melting point
Return: 200 °C (dec.)

Enquiry: Item COc1cccc2c(Nc3ccc(Br)c(O)c3)c(C#N)cnc12 : provide melting point
Return: 146 °C (dec.)

Enquiry: Item COCC#CC(=O)Nc1ccc2ncc(C#N)c(Nc3ccc(F)c(Cl)c3)c2c1 : provide melting point
Return: 170 to 171 °C
